Record form. Attribute: activity change, negative = inhibition. Fill in for each entry.
# assayOverview: NFAT Signaling Pathway (AID 444);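 note: carbachol stimulus at about its EC50 of 1 µM final; % is set by controls: 0 for no effect and ±100 for the full control effect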
# measurementSetup: Jurkat NFAT-bla M1, carbachol, beta-lactamase ratio, 5 h; at 38 µM (top of the series)
# Description: NCGC Assay Overview: The nuclear factor of activated T cells (NFAT) family of transcription factors has been found primarily in most immune system cells and some other non-immune cells. NFAT plays the immunomodulatory role, primarily in T-cell activation and differentiation. […] NCGC Assay Protocol Summary: The cells were prepared in RPMI 1640 medium containing 0.1% dialyzed FBS and 25 mM HEPES at 1.6 x 10^6cell/ml. […] The %Activity was determined from the ratio of 460nm/530nm. […]
Records with an inconclusive call do not appear.
Field format: number, assumed %, no unit text.

Task: Specify reported activity change, negative = inhibition for the compound shown: CC(N)=NCCC[C@H](N)C(=O)O
Output: 5.13

Task: Give a short answer stating reported activity change, negative = inhibition for COc1ccc2c(c1)c(CC(=O)N1CCOCC1)c(C)n2C(=O)c1ccc(Cl)cc1 .
Output: 2.03

Task: For the compound C=CCN1CCc2cc(O)c(O)cc2[C@H](c2ccccc2)C1 , give its reported activity change, negative = inhibition.
Output: -18.1

Task: Report measured activity change, negative = inhibition; entry is CNC(=O)Oc1ccc2c(c1)[C@@]1(C)CCN(C)[C@@H]1N2C
Output: -3.73

Task: Retrieve activity change, negative = inhibition measured for N[C@H](CCC(=O)N[C@H](CSN=O)C(=O)NCC(=O)O)C(=O)O and print it.
Output: 0.964

Task: Check the records and state activity change, negative = inhibition for CCCn1c(=O)c2[nH]c(-c3ccc(OCC(=O)Nc4ccc(C#N)cc4)cc3)nc2n(CCC)c1=O
Output: -7.64

Task: Assign activity change, negative = inhibition to the following record: CC1=C(\C=C/C(C)=C/C=C\C(C)=C\C(=O)O)C(C)(C)CCC1
Output: 4.1

Task: Give activity change, negative = inhibition for O=Nc1c(-c2c(O)[nH]c3ccccc23)[nH]c2ccccc12
Output: -23.6

Task: Report measured activity change, negative = inhibition; entry is OCc1cc([C@@H](O)CNCCCCCCOCCCCc2ccccc2)ccc1O
Output: -1.3

Task: Tell me measured activity change, negative = inhibition for NS(=O)(=O)c1cc2c(cc1Cl)N[C@@H]([C@@H]1C[C@@H]3C=C[C@H]1C3)NS2(=O)=O please.
Output: 4.22

Task: Annotate the compound COc1[nH]c2ccc(F)cc2c1C(=O)OCC1CCN(CCNS(C)(=O)=O)CC1 with its measured activity change, negative = inhibition.
Output: 0.0444

Task: State its activity change, negative = inhibition for this compound: N[C@H](Cc1ccc(Cl)cc1)C(=O)O
Output: 7.18

Task: Tell us which activity change, negative = inhibition value is on record for CC(=O)N[C@@H](C(=O)O)C(C)(C)SN=O
Output: 9.84

Task: Retrieve activity change, negative = inhibition measured for CCn1ccnc1C[C@@H]1COc2ccccc2O1 and print it.
Output: -4.02

Task: Tell me its activity change, negative = inhibition given CC[C@H](C)N(C)C(=O)c1cc2ccccc2c(-c2ccccc2Cl)n1 as the entry.
Output: -2.88

Task: Identify measured activity change, negative = inhibition associated with C[C@]12CC3CC(N)(C1)C[C@@](C)(C3)C2
Output: -5.02

Task: Indicate its recorded activity change, negative = inhibition; the compound in question is Cc1cccc(C)c1NC(=O)C[N+](C)(C)C
Output: 11.6

Task: Could you please provide reported activity change, negative = inhibition for CC(C)NC[C@H](O)c1ccc(NS(C)(=O)=O)cc1 ? Thanks!
Output: -7.39

Task: Dear colleague, please send me the reported activity change, negative = inhibition for CC(N)=NCc1cccc(CN)c1 when you can.
Output: -2.12

Task: Input CC#CCOC(=O)c1c(C)nc2sc3c(c2c1N)CC[C@@H](O)C3 , output reported activity change, negative = inhibition.
Output: -25.8

Task: Find the measured activity change, negative = inhibition of COc1cc2nc(N3CCN(C(=O)[C@H]4CCCO4)CC3)nc(N)c2cc1OC and report it.
Output: -4.26

Task: Tell me measured activity change, negative = inhibition for CC(C)[C@@H]1[C@H]2CC[C@H](C2)[C@H]1N please.
Output: 2.88

Task: Give activity change, negative = inhibition for CCCCOc1cc(C[C@@H]2CNC(=O)N2)ccc1OC
Output: -19.1

----------
# assayTarget: Furin (Homo sapiens) (UniProt P09958)
# Sequence (P09958 whole entry, looked up): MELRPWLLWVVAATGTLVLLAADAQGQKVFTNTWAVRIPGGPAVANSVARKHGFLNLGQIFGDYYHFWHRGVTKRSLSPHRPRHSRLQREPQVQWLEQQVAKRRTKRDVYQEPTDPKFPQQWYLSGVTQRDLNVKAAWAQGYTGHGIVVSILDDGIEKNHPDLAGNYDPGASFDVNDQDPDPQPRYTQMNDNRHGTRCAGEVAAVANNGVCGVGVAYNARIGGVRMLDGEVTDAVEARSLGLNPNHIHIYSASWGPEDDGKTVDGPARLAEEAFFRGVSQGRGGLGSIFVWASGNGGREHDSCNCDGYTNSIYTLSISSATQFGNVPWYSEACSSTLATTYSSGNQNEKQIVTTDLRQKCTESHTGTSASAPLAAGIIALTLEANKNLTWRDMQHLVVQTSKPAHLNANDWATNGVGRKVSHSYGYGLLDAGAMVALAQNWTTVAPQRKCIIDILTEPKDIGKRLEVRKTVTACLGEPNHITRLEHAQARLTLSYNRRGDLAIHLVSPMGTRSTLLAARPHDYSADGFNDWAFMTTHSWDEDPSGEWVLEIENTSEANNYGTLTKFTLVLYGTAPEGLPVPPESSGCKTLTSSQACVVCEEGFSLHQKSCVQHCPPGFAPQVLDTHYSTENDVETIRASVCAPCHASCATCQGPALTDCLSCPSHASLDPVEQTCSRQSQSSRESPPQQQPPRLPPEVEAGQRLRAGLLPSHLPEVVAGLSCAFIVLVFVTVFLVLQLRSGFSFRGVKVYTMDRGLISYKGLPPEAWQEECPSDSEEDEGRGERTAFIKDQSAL
# assayOverview: Furin counterscreen qHTS for Zika virus inhibitors (AID 1347149); note: nearly all actives have a fitted effect of over 70% in size
# measurementSetup: furin enzymatic counterscreen, fluorogenic substrate; series mostly up to 114 µM
# Excerpt: Avindra Nath, Ph.D., National Institute of Neurological Disorders and Stroke (NINDS), Bethesda, MD Radhakrishnan Padmanabhan, Ph.D., Georgetown University (GU), Washington D.C. Zika Virus causes congenital defects, including microcephaly and is associated with Guillain-Barre syndrome, eningoencephalitis and myelitis in infected adult. […]
Inconclusive results are not listed. Activity calls are given as the source filed them. Calls follow the shape of the dose curve; as a rule, active = well fitted inhibition curve with a large enough effect; inconclusive = small, poorly fitted or top-dose-only effect; inactive = no such curve, though single readings can be large or run the other way.
Your reply should match one of these outcome classes. active, inactive

Task: In this assay, the call recorded for CC(=O)C(N=Nc1ccc(S(=O)(=O)Nc2ccccn2)cc1)C(=O)Nc1ccc(Cl)cc1 (stereo not given) was what?
Output: inactive

Task: Check the results log: what was the call for CCOc1ccc(C2C(=O)N(C3CCCCCC3)CC(=O)N2CCc2ccc(Cl)cc2)cc1OC (stereo not given) ?
Output: inactive

Task: Query: recorded result category for O=C1C2=C(Nc3ccccc3SC2c2ccc(Cl)c(Cl)c2)c2ccccc21 (stereo not given) in this test
Output: inactive

Task: Which outcome was assigned to O=C(OCC#CCSc1nnc(-c2cccc3ccccc23)o1)c1ccc(C(F)(F)F)cc1 in this test?
Output: active

Task: Test call for this compound, please: Cc1cccc(C)c1-n1c(SCC(=O)Nc2ccc(C(=O)O)cc2)nnc1-c1cccc([S+](=O)([O-])N2CCCC2)c1
Output: inactive

----------
# assayTarget: Arylsulfatase A (Homo sapiens) (UniProt P15289)
# Sequence (P15289 whole entry, looked up): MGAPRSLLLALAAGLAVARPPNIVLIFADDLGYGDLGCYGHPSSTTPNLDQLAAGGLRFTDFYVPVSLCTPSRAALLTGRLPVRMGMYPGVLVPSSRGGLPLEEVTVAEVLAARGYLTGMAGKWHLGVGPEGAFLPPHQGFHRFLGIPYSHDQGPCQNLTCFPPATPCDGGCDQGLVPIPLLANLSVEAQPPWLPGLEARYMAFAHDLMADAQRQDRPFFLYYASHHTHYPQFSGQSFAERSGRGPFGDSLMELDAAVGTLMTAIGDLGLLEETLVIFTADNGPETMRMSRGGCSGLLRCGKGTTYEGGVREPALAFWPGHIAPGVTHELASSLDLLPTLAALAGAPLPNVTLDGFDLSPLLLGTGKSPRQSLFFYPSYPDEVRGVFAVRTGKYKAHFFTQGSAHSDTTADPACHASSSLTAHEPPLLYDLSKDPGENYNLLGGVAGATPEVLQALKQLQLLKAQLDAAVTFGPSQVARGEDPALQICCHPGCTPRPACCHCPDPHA
# assayOverview: qHTS screen for enhancers of Arylsulfatase A (ASA1): LOPAC Validation Assay (AID 720538)
# measurementSetup: ASA enzyme activity, LOPAC qHTS enhancer assay; series mostly up to 57.5 µM
Records with an inconclusive call do not appear. Calls of active or inactive are those of the source. The call rests on the fitted dose curve; in most records, active means well fitted activation curve with a large enough effect; inconclusive means small, poorly fitted or top-dose-only effect; inactive means no such curve, though single readings can be large or run the other way.
Hi there, use one of these labels in your reply, thanks! active, inactive

Task: Each molecule tested received a call. Report the one for CN1C2CCCC1CC(NC(=O)c1nn(C)c3ccccc13)C2 (stereo unspecified) .
Output: inactive

Task: Hi, sorry to bother you, what did the test record for Nc1c(S(=O)(=O)O)cc(Nc2ccc(Nc3nc(Cl)nc(Nc4ccc(S(=O)(=O)O)cc4)n3)c(S(=O)(=O)O)c2)c2c1C(=O)c1ccccc1C2=O ?
Output: active

Task: Dear all, I need the recorded test outcome for Oc1cc2c(c(Cl)c1O)CCNCC2c1ccccc1 (stereo unspecified) , thank you.
Output: inactive

Task: Just curious, what result did Cc1cccc(/C=C/c2ccccc2)n1 get here?
Output: inactive

Task: What outcome does the record of this test show for N#C/C(=C\c1ccc(O)c(O)c1)C(=O)Nc1ccccc1 ?
Output: inactive

Task: Recorded call for CCc1ccc(/C=C2/SC(=S)NC2=O)cc1 ?
Output: active

----------
# assayOverview: qHTS for Inhibitors of Plasmodium falciparum (CP250) proliferation (AID 504320)
# measurementSetup: P. falciparum CP250 in erythrocytes, SYBR Green DNA, 72 h; series mostly up to 6.7 µM
Results filed as inconclusive are left out. Active and inactive are the calls of the source. The call rests on the fitted dose curve; in most records, active means well fitted inhibition curve with a large enough effect; inconclusive means small, poorly fitted or top-dose-only effect, or effect the other way; inactive means flat fitted curve, though single readings scatter.
Use one of these outcomes when replying: Yes for active, No for inactive

Task: Please state the recorded outcome for this molecule: COC1=C[C@H](C(=O)NCCOC(C)=O)[C@H](C)[C@@H](c2ccccc2)CC1=O
Output: No

Task: Hi team, can someone confirm the assay call for O=C(NN=C1C[C@@H](O)[C@H](O)[C@H]2[C@@H]3C(=O)N(C4CCCCC4)C(=O)[C@@H]3CC[C@H]12)OCc1ccccc1 ?
Output: No

Task: I'd appreciate the recorded outcome for COc1cccc(C(CC2=CCCCC2)NC(=O)C(F)(F)F)c1 (centres undefined) from this test.
Output: No

Task: Hi, sorry to bother you, what did the test record for C=COC[C@H]1CN2[C@H](c3ccc(Br)cc3)[C@H](C)CC[C@H]2C(=O)O1 ?
Output: Yes

Task: Look up the recorded call for C#CCN1C(=O)CC[C@@]23C1=NC(C(=O)OC)=C(C(=O)OC)[C@@H]2N(Cc1ccccc1)c1ccccc13 in this test.
Output: No

Task: Any idea what this test logged for CCN1C(=O)[C@@H]2[C@H]3[C@H](O)[C@H](O)CC(=NO[C@@H](C)c4cn([C@H](CO)Cc5ccccc5)nn4)[C@@H]3CC[C@H]2C1=O ?
Output: No

Task: Test call for this molecule, please: COC(=O)NC(c1ccccc1)c1c[nH]c2ccc(OC)cc12 (centres undefined)
Output: No

Task: What is the recorded call for this molecule in the test? CC(=O)OC[C@H]1O[C@H](CC=NO[C@@H](C)CN2CCCc3nc(C)c(C)cc32)C=C[C@@H]1OC(C)=O
Output: No

Task: Record lookup: outcome of this test for COc1cc2c(c(OC)c1OC)CC(C)=C(C)CC2NC(=O)C(F)(F)F (centres undefined) ?
Output: No

Task: Please indicate how the test categorized C=CCOC(=O)NC(c1ccc(F)c(F)c1)C(C(=O)COC)C(=O)OC (centres undefined) .
Output: No

Task: Hi team, can someone confirm the assay call for CC=CC1=CC2=CC(=O)C(C)(OC(=O)c3c(C)cc(O)cc3O)C(=O)C2=CO1 (centres undefined) ?
Output: No

Task: # fetch the recorded call for CC12C=C(C=Cc3ccc(C(F)(F)F)cc3)C(C)(C1)C(c1ccc(C(F)(F)F)cc1)CC2=O (centres undefined) here
Output: No

Task: Returns: the outcome recorded for C=CCOC(=O)N[C@@H](c1ccccc1)[C@@H](C)[N+](=O)[O-] in this assay.
Output: No

Task: Recorded call for C=C[C@@H](C)[C@](C)(O)c1ccccc1 ?
Output: No

Task: # fetch the recorded call for CCCCC1=CC2=CC(=O)C(C)(OC(=O)CCc3ccccc3)C(=O)C2=CO1 (centres undefined) here
Output: No

Task: I would be grateful if you could indicate the recorded call for COC(=O)CCCC1=CC2=CC(=O)C(C)(O)C(=O)C2=CO1 (centres undefined) .
Output: No

Task: Could you please tell me the result logged for COc1cc(O)c(C(=O)C=Cc2ccccc2)c(O)c1 in this assay?
Output: No

Task: Look up the recorded call for O=C1[C@H]2[C@@H]3[C@@H](O)[C@H](O)CC(=NOCc4ccccc4)[C@@H]3CC[C@H]2C(=O)N1C[C@@H]1CCCO1 in this test.
Output: No

Task: Write down the call the test reported for this molecule. Item: COC(=O)C1=C(C)N(CC2CC2)C(=NCCc2cccnc2)NC1c1ccccc1 (centres undefined)
Output: No
